Test system: lactate dehydrogenase (LDH)
measurement protocol: ELISA analysis of phage on LDH (irrelevant, non-specific target)
Type: binding
condition context: peptide binding to LDH polypeptide (non-specific binding); phage ELISA units read at 405 nm
So basically, if LDH (OD) comes in under 1 OD it's 1, and if it's 1 OD or more it's 0.

biosequence: GASRVVDVGWRFWGKLWQRS (DGI-2-20F-PP-G5; listed as Escherichia coli)
assigned label: 0
//
biosequence: FRVALLSVSAGPCEGSGNT (DGI-2-20F-PP-H7; listed as Escherichia coli)
assigned label: 1
//
biosequence: RRTSADTDQLSRWEGAQAFSSLRSALSERLDSLRPGLPPS (DGI-2-40F-3-D9; listed as Escherichia coli)
assigned label: 1
//
biosequence: VGQSSGDARPLANLFVFPFV (DGI-2-20F-PP-F12; listed as Escherichia coli)
assigned label: 1
//
biosequence: LVIGQRSFLSACSLFDGFCV (DGI-2-20R-4-H814; listed as Escherichia coli)
assigned label: 0

Item ISGQVWSSWRFPGWGGKLF (ISGQVWSSWRFPGWGGKF; DGI-2-20R-3-D10; listed as Escherichia coli) : LDH (OD) beneath 1 OD, strictly?
0

A record lists TVKFQGVVQERSRIAGFRYCGDHAVSWGLAGCPALRDKLQ (DGI-2-40F-3-C424; listed as Escherichia coli) . Is its LDH (OD) below 1 OD?
0

Is it true that LDH (OD) reported for RCFQDGRMLALSPTYLIRRSVSPLVVGPLPTP (DGI-2-40F-3-A24; listed as Escherichia coli) is less than 1 OD?
1

---

Test system: E-tag antibody
measurement protocol: ELISA analysis of phage on antibody raised against ETAG (positive control)
condition context: peptide binding to E-tag antibody; phage ELISA units read at 405 nm
Method: For analysis of individual target binders, colonies were picked and phage prepared as described above using helper phage, M13KO7. Ninety-six-well microtiter plates were coated with 500 ng/well of specific target protein, 500 ng/well lactate dehydrogenase (LDH) irrelevant or non-specific target, 500 ng/well of positive control antibody raised against ETAG, and negative control of non-fat milk powder-PBS 2% at 4° C. overnight. […] Plates were analyzed at 405 nm. […]
measure: ETAG (OD)
The answer is to be given in OD; state only the numeric part.

The cases that follow already have their ETAG (OD) on record.
substance: LHRLGQSMGGTLDHLQGWGV (DGI-2-20R-4-E5; listed as Escherichia coli)
ETAG (OD): 17.9
--
substance: GGSLPVKSGQLVTCCTSKGG (DGI-2-20F-PP-F5; listed as Escherichia coli)
ETAG (OD): 16.3
--
substance: DGKHLTKWSGRGWWSAWVGG (DGI-2-20R-3-B12; listed as Escherichia coli)
ETAG (OD): 15.5
--
substance: GGGRESWGGGWFMGWGSGAG (DGI-2-20R-3-A6; listed as Escherichia coli)
ETAG (OD): 17.7
--
substance: VSGY#SLWWCGPGWGPRSGR (VSGYSLWWCGPGWGPRSGR; DGI-2-20F-PP-H11; listed as Escherichia coli)
ETAG (OD): 2.1

Observed ETAG (OD), E-tag antibody, LQIVRPAGMTKMPGQVGYYIG (LQIVRPAGWKMPGQVGYYIG; DGI-2-20R-3-A9; listed as Escherichia coli) : 14.3

WEVGQVEKFSRGVGGWWPTG [DGI-2-20R-3-D3] on E-tag antibody gives ETAG (OD) = 16.8

The measured ETAG (OD) that LGPAHPHGRVCRVSSS#S (LGPAHPHGRVCRVSSSS; DGI-2-20F-PP-B9; listed as Escherichia coli) showed for E-tag antibody is 5.0
